assay.info: M. tuberculosis growth inhibition, HTS (AID 449762);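 note: bacterial growth assessed after seven days of incubation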
experimental.conditions: M. tuberculosis H37Rv growth inhibition, 7H9 media; at 25 µM; active compounds read high
The campaign covered roughly 330,000 compounds. About 1,900 (0.58%) were called active. Another 4% or so got no clear call; they are omitted. Not all results are given here. Measured potencies and affinities stand elsewhere.
Listing: inhibition of selected molecules
Response body: numeric value in %, unit text excluded.

Examples with their reported inhibition follow.
>>> df
                                   molecule  result_type  display_unit  reading
0  CCOC(=O)c1c(NC(=O)/C=C\C(=O)O)sc(C)c1-c1ccccc1   inhibition             %    -6.71
1  Cc1cc(OC(C)C(=O)NCC2CCCO2)cc(C)c1Cl (stereo unspecified)   inhibition             %     11.1
2  CCOC(=O)c1c(NC(=O)CCN2CCOCC2)sc(C)c1-c1ccccc1   inhibition             %     3.54
3       CN(C)c1ccc(/C=C/c2cccc[n+]2[O-])cc1   inhibition             %     1.21
4  COc1cccc(NC(=O)CSc2nnc(-c3cc(C)[nH]n3)n2N)c1   inhibition             %     7.87

[Q] Which inhibition reading was recorded for the molecule O=C(CSc1nc(=O)n(CCCN2CCOCC2)c2c1CCCC2)Nc1ccc(F)cc1 ?
[A] -5.62

[Q] Which inhibition reading was recorded for the molecule O=C(CC(Nc1ccccc1Cl)C(=O)OCC(=O)c1cccs1)c1ccccc1 (stereo unspecified) ?
[A] 2.88

[Q] Which inhibition reading was recorded for the molecule Cc1cc(C(=O)CSc2n[nH]c(N)n2)c(C)n1-c1cccc(F)c1 ?
[A] -3.82

[Q] Which inhibition reading was recorded for the molecule COc1ccc(C(=O)C2CCN(CC(=O)Nc3ccc(C)cc3)CC2)cc1 ?
[A] 8.88

[Q] Which inhibition reading was recorded for the molecule COC(=O)c1ccc(-n2c(C)cc(C(=O)COC(=O)C3=COCCO3)c2C)cc1 ?
[A] 48.5

[Q] Which inhibition reading was recorded for the molecule COc1cc(NC(=O)CCc2c(C)nc3nc(C)nn3c2C)cc(OC)c1 ?
[A] 2.33

---

assay.info: M. tuberculosis growth inhibition, HTS (AID 449762);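 note: bacterial growth assessed after seven days of incubation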
experimental.conditions: M. tuberculosis H37Rv growth inhibition, 7H9 media; at 25 µM; active compounds read high
Out of some 330,000 compounds screened, about 1,900 (0.58%) were called active. Roughly 4% stayed inconclusive and do not appear here. A selection follows. Entries with a potency or affinity are not part of this list.
result.type: inhibition (%)
Response body: numeric value in %, unit text excluded.

[Q] Which inhibition reading was recorded for the compound CCOc1ccc(OCCC(=O)OCC(=O)Nc2ccc(N3CCOCC3)cc2)cc1 ?
[A] 8.74

[Q] Which inhibition reading was recorded for the compound Cc1ccccc1CN1C(=O)[C@H]2Cc3c([nH]c4ccccc34)C(C)(C)N2C1=O ?
[A] -6.56

[Q] Which inhibition reading was recorded for the compound COc1ccc(C2=NCCc3cc(OC)c(OC)cc32)cc1OC ?
[A] 4.26

[Q] Which inhibition reading was recorded for the compound CN(C(=O)c1cccc(NC(=O)c2ccccc2)c1)C1CCCCC1 ?
[A] -5.84

[Q] Which inhibition reading was recorded for the compound COc1ccc2c(c1)C(=O)N1[C@H]3c4cc(OC)ccc4OC[C@@H]3[C@H](c3ccccc3)[C@]1(C)C(=O)N2 ?
[A] 1.44

[Q] Which inhibition reading was recorded for the compound O=C(C[N+]12CCN(CC1)CC2)NCCc1ccc(Cl)cc1Cl ?
[A] -3.14

[Q] Which inhibition reading was recorded for the compound Nc1ccc(-c2cc(-c3ccc(N)cc3)nc(-c3ccccc3)n2)cc1 ?
[A] -2.43

[Q] Which inhibition reading was recorded for the compound O=C(NC(=S)Nc1cccc2ncccc12)c1ccccc1 ?
[A] 0.24

[Q] Which inhibition reading was recorded for the compound O=S1(=O)CCOC[C@H](c2ccccc2)N1Cc1ccccc1F ?
[A] 1.26

---

assay.info: M. tuberculosis growth inhibition, HTS (AID 449762);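 note: bacterial growth assessed after seven days of incubation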
experimental.conditions: M. tuberculosis H37Rv growth inhibition, 7H9 media; at 25 µM; active compounds read high
The campaign covered roughly 330,000 compounds. About 1,900 (0.58%) were called active. Not shown: some 4% with an inconclusive outcome. The list is a sample of the results. Potency and affinity values are given separately.
Listing: inhibition of selected compounds
Response body: numeric value in %, unit text excluded.

Examples with their reported inhibition follow.
>>> df
                                   compound  reading
0  Nc1nc(Nc2ccccc2)nc(NC2CCCCC2)c1[N+](=O)[O-]     29.1
1  Cc1ccc(S(=O)(=O)N2CCCCC2C(=O)N2CCN(C)CC2)cc1 (centres undefined)    -3.69
2  CCCCNC(=O)COC(=O)CNC(=O)c1cc(Cl)cc([N+](=O)[O-])c1     6.26

Turning now to a further compound:
[Q] Which inhibition reading was recorded for the compound COc1ccc(C2=Nn3c(nnc3-c3ccccc3OC)SC2)cc1OC1CCCC1 ?
[A] 63.1

---

assay.info: M. tuberculosis growth inhibition, HTS (AID 449762);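 note: bacterial growth assessed after seven days of incubation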
experimental.conditions: M. tuberculosis H37Rv growth inhibition, 7H9 media; at 25 µM; active compounds read high
Among all 330,000 compounds or so, about 1,900 (0.58%) were called active. Another 4% or so got no clear call; they are omitted. Only a sample is shown. Results with a measured potency or affinity are listed apart.
Listing: inhibition of selected compounds
Response body: numeric value in %, unit text excluded.

                                   compound  reading
0  Cc1c(C2(O)CCCCC2)[nH]c2cc(C(F)(F)F)ccc12     15.3
1                 CCCN=Cc1sc2ccc(OCC)cc2c1O     -4.1
2         CCc1ccc2oc(-c3cc(N)cc(C)c3O)nc2c1     42.6
3             CCCOc1ncnc2c1[nH]c1ccc(C)cc12     6.51
4              Nc1nc2ccccc2n1CCOc1ccc(F)cc1     41.5
5  CCCCN1C(=N)N([C@@H](C)CN2CCC[C@H]2CN2C(N)=NC[C@@H]2Cc2ccccc2)C[C@H]1Cc1ccccc1     67.2
6     Cc1cc(/C=N/NC(N)=O)c(C)n1-c1ccc(F)cc1     1.83
7  CCOc1ccc(-c2c[n+]3c(n2-c2ccccc2)CCCCC3)cc1    -9.73
8  CC1=NN(c2cccc(C(=O)O)c2)C(=O)/C1=C\C=C\c1ccco1    -4.32
9  COc1cc(OC)cc(C(=O)NCC(=O)OCC(=O)N2CCc3ccccc32)c1     5.39

[Q] Which inhibition reading was recorded for the compound COc1ccc(Nc2nc(CC(C)=O)ns2)cc1OC ?
[A] -2.22

[Q] Which inhibition reading was recorded for the compound Cc1cc(C(F)F)n2ncc(C(=O)N3CCc4ccccc4C3)c2n1 ?
[A] -2.51

[Q] Which inhibition reading was recorded for the compound O=C(OCC(=O)N1CCc2ccccc21)c1cccnc1Cl ?
[A] -2.8

[Q] Which inhibition reading was recorded for the compound CCCCN1C(=N)N([C@@H](CCC)CN2CCC[C@H]2CN2C(N)=NC[C@@H]2Cc2ccccc2)C[C@H]1[C@H](C)CC ?
[A] 4.76

[Q] Which inhibition reading was recorded for the compound CN(C)C(CNc1ncnc2sccc12)c1cccs1 (stereo not drawn) ?
[A] -3.95

[Q] Which inhibition reading was recorded for the compound COC(OC)c1ccnc(-c2ccc(OC(=O)c3ccccc3)cc2)n1 ?
[A] 57

[Q] Which inhibition reading was recorded for the compound CC(C)C(NS(=O)(=O)c1cccs1)C(=O)NCCCN1CCCCCC1 (stereo not drawn) ?
[A] -1.69

[Q] Which inhibition reading was recorded for the compound CN1CCc2cccc3c2C1Cc1ccc(O)c(O)c1-3 (stereo not drawn) ?
[A] 35.5

[Q] Which inhibition reading was recorded for the compound CCSc1nnc(NC(=O)c2nc3nc(C)cc(C)n3n2)s1 ?
[A] -7.36

[Q] Which inhibition reading was recorded for the compound O=C(c1cccc(Cl)c1)N1CCN(c2ccc(N3CCOCC3)nn2)CC1 ?
[A] 0.55

[Q] Which inhibition reading was recorded for the compound O=C(CN1C(=O)NC2(CCCC2)C1=O)N1CCN(S(=O)(=O)c2ccc(Cl)c(C(F)(F)F)c2)CC1 ?
[A] -1.26

[Q] Which inhibition reading was recorded for the compound CCOC(=O)c1sc2ncnc(NCc3ccco3)c2c1C ?
[A] 0.46

[Q] Which inhibition reading was recorded for the compound COC(=O)C1=CO[C@@H](O[C@@H]2O[C@H](CO)[C@@H](O)[C@H](O)[C@H]2O)C2C1CC(O)O[C@H]2C (stereo partly drawn) ?
[A] -0.01

---

assay.info: M. tuberculosis growth inhibition, HTS (AID 449762);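 note: bacterial growth assessed after seven days of incubation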
experimental.conditions: M. tuberculosis H37Rv growth inhibition, 7H9 media; at 25 µM; active compounds read high
Out of some 330,000 compounds screened, about 1,900 (0.58%) were called active. About 4% were inconclusive and are not listed. A selection follows. Entries with a potency or affinity are not part of this list.
result.type: inhibition (%)
Response body: numeric value in %, unit text excluded.

Examples with their reported inhibition follow.
In [3]: df
Out[3]:
                                   compound  result_type  reading
0  CCOc1ccccc1C1N=C(c2ccc(OC)cc2)CC(c2ccccc2O)N1 (stereo not drawn)   inhibition       13
1  CC(Oc1ccc2c3c(c(=O)oc2c1)CCC3)C(=O)NC1CCN(Cc2ccccc2)CC1 (stereo not drawn)   inhibition     5.54
2  CCOC(=O)N1CCN(CCC(=O)Nc2ccc(OC(F)(F)F)cc2)CC1   inhibition     18.8
3      O=C(CNC(=O)c1cnccn1)Nc1ccc(F)c(F)c1F   inhibition     -5.9
4  Cc1ccc(NC(=O)C2C3/C=C\CCCCC32)cc1 (stereo not drawn)   inhibition    -6.56

[Q] Which inhibition reading was recorded for the compound Cc1ccccc1CNC(=O)Nc1ccc(Cl)cc1 ?
[A] 8.74

[Q] Which inhibition reading was recorded for the compound COc1cc(/C=C/C(=O)OC(C)C(=O)Nc2ccc(Cl)cn2)ccc1OC(F)F (stereo not drawn) ?
[A] 28.3

[Q] Which inhibition reading was recorded for the compound CCC1(C)N=C(c2ccc3c(c2)OCO3)CC(c2ccccc2O)N1 (stereo not drawn) ?
[A] -5.31
